# System: Antitargets
# experimentalProtocol: Fam108b inhibitors and proteome off-target selectivity – biochemical, gel-based ABPP, recombinant soluble Fam108b, HTS hits, complex proteome, late-stage follow-up (AID 588651);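 further: Fam108b spiked into mouse brain membrane proteome; tested at 20 µM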
# conditionContext: FP-rhodamine labeling in proteome
Active and inactive are the calls of the source. No stated cut-off is given here; in the data, active means inhibition above about 65%; inactive means the rest.
Write down the outcome that applies. Available outcomes: 1 = active, 0 = inactive

Challenge: State the result this test recorded for COc1cccc(C=NNC(=O)c2[nH]c(C)c(C(=O)NN=Cc3cccc(OC)c3O)c2C)c1O .
Response given: 1

Challenge: State the result this test recorded for O=C1C(Cl)=C(Nc2ccc3cn[nH]c3c2)C(=O)c2ccccc21 .
Response given: 0

Challenge: State the result this test recorded for Oc1cccc2cc3cccc(O)c3c(O)c12 .
Response given: 1

Challenge: State the result this test recorded for O=C(O)c1ccc(S(=O)(=O)/N=C2\C=C(Nc3ccccc3F)C(=O)c3ccccc32)cc1 .
Response given: 0

Challenge: State the result this test recorded for Cc1ccnc(N=Cc2nc(-c3ccccc3Br)oc2O)c1 .
Response given: 0

###

# Tested on: Antitargets
# experimentalProtocol: Fam108b inhibitors and proteome off-target selectivity – biochemical, gel-based ABPP, recombinant soluble Fam108b, HTS hits, complex proteome, late-stage follow-up (AID 588651);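 further: Fam108b spiked into mouse brain membrane proteome; tested at 20 µM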
# conditionContext: FP-rhodamine labeling in proteome
The source made the active and inactive calls. Cut-off read from the data, not from the text of the source: active = inhibition above about 65%; inactive = the rest.
Write down the outcome that applies. Available outcomes: true = active, false = inactive

The examples below pair each entry with its known result.
[[record]]
compound = "Oc1ccc(C=NNc2ccnc3cc(Cl)ccc23)cc1O"
label = "false"

[[record]]
compound = "Cc1cc(C(C#N)c2ccc(Cl)cc2)c(Cl)cc1NC(=O)c1cc(I)cc(I)c1O (stereo not given)"
label = "false"

[[record]]
compound = "COc1ccc(C=NNC(=O)c2ccc(O)cc2)cc1CN1CCCc2ccccc21"
label = "false"

[[record]]
compound = "Oc1oc(-c2ccccc2Br)nc1C=Nc1ccccn1"
label = "true"

[[record]]
compound = "COc1cccc(C=NNc2nc(Nc3ccc([N+](=O)[O-])cc3)nc(N3CCCC3)n2)c1O"
label = "false"


Challenge: State the result this test recorded for O=C(Nc1ccc2[nH]c(=S)sc2c1)Nc1ccccc1F .
Response given: false

Challenge: State the result this test recorded for CC(C)(C)c1nc2scc(-c3cccs3)c2c(=O)o1 .
Response given: false

Challenge: State the result this test recorded for COc1cc2cc(C(=O)NN=Cc3ccccc3Cl)[nH]c2cc1OC .
Response given: false

Challenge: State the result this test recorded for Nc1c(S(=O)(=O)c2cccc(Cl)c2)c2nc3ccccc3nc2n1N=Cc1ccc(O)c(O)c1 .
Response given: false

Challenge: State the result this test recorded for Cc1ccc(S(=O)(=O)/N=C2\C=C(Nc3cccc(C(=O)O)c3)C(=O)c3ccccc32)cc1 .
Response given: false

###

# System: Antitargets
# experimentalProtocol: Fam108b inhibitors and proteome off-target selectivity – biochemical, gel-based ABPP, recombinant soluble Fam108b, HTS hits, complex proteome, late-stage follow-up (AID 588651);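 further: Fam108b spiked into mouse brain membrane proteome; tested at 20 µM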
# conditionContext: FP-rhodamine labeling in proteome
The source made the active and inactive calls. No stated cut-off is given here; in the data, active means inhibition above about 65%; inactive means the rest.
Write down the outcome that applies. Available outcomes: active, inactive

The examples below pair each entry with its known result.
[[record]]
querysmiles = "CC1CCN(S(=O)(=O)c2ccc(C(=O)Nc3ccccc3-c3nc4ccccc4[nH]3)cc2)CC1"
label = "inactive"

[[record]]
querysmiles = "Cn1c2ccccc2c2cc(C=NNC(=O)c3cc(O)ccc3O)ccc21"
label = "inactive"

[[record]]
querysmiles = "Cc1ccc2nc(CSc3nc(C)ccc3C#N)[nH]c2c1"
label = "inactive"

[[record]]
querysmiles = "Nc1cc2nsnc2cc1Br"
label = "inactive"

[[record]]
querysmiles = "CCc1cc(C(Cc2ccc3ccccc3n2)=NO)c(O)cc1O"
label = "active"


Please examine the following record next.
Challenge: State the result this test recorded for COc1ccc(/C=C2\SC(=S)N(CC(=O)OCC(=O)Nc3cc(Cl)cc(Cl)c3)C2=O)cc1 .
Response given: inactive

Values compiled from PubChem BioAssay AID588651.
